Target: mouse sACfl (Mus musculus)
Construct: Schematic of full-length (sACfl) and truncated (sACt) sAC isoforms; from tissue; host or cells: testes of homozygous double knock-in mice (FLAG pulldown, eluted with 3xFLAG peptide)
Sequence (Q8C0T9 whole entry, the tested form may be a part, canonical isoform): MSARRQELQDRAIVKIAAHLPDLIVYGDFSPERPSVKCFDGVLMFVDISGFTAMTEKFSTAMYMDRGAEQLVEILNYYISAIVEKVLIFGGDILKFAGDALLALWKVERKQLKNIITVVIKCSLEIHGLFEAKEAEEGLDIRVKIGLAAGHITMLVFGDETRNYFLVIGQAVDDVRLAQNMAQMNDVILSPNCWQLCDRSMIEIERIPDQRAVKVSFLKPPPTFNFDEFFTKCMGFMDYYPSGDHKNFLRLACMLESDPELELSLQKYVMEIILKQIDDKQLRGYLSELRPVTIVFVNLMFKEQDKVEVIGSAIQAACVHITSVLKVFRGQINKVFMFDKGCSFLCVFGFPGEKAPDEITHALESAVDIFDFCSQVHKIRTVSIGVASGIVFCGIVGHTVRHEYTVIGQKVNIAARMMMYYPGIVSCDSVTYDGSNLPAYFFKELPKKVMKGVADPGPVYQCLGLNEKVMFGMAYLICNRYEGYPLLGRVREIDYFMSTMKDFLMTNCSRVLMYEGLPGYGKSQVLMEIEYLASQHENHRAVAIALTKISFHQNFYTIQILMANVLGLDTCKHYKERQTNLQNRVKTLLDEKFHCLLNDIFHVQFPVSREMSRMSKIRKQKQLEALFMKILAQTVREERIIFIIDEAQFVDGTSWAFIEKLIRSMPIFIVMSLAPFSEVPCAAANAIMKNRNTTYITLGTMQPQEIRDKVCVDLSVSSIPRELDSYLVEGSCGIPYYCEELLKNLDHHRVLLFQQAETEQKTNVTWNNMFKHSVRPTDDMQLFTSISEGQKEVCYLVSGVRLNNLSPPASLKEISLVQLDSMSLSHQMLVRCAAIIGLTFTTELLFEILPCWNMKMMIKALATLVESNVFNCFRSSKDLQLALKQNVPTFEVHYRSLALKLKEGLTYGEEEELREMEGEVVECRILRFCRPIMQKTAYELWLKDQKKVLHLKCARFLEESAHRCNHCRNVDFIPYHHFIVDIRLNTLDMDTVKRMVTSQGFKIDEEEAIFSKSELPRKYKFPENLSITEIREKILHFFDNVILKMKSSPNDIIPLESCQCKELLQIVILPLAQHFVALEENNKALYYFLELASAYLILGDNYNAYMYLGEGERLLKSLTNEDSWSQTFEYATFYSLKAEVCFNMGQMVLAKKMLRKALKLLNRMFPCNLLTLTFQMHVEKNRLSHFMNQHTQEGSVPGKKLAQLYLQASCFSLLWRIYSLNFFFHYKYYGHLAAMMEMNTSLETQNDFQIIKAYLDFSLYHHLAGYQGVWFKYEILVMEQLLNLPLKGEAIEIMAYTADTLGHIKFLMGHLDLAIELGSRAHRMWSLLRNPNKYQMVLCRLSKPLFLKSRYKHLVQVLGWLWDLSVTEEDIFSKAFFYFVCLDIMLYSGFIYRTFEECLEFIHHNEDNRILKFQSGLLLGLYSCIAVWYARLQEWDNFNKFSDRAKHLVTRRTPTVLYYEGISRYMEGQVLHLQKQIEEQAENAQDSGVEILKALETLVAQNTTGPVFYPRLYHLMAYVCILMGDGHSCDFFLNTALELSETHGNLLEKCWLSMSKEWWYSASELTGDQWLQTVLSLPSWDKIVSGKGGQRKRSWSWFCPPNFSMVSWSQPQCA
Assay: In vitro adenylyl cyclase activity assay (two-column method), endogenous mouse sACfl (FLAG)
Format: biochemical
Details: 2 mM ATP, 10 mM MgCl2, 10 mM CaCl2; read-out: EC50 for HCO3^-
Source text: […]. To determine specific activities of endogenous mouse proteins, sACfl and sACt were quantitated by Western blot. For ATP kinetics, representative experiments are shown with SEM determined from normalized data.
RECORDED_ENDPOINT: pEC50
Note on units: pEC50 is unitless, being -log10 of a concentration expressed in mol/L.

Q) Suppose we examine the compound `O=C(O)O` ; what pEC50 value has been reported?
A) 1.68

----------
target: human sACfl (Homo sapiens); construct: Schematic of full-length (sACfl) and truncated (sACt) sAC isoforms; eGFP (C, cleaved yes); His-tag (on eGFP) (C, cleaved yes); PreScission protease site (C); made in house; host or cells: Expi293 cells; assay: In vitro adenylyl cyclase activity assay (two-column method), heterologously expressed human sACfl (GFP nanobody purified, complexed with Hsp70); type: biochemical; settings: 2 mM ATP, 10 mM MgCl2, 10 mM CaCl2; read-out: EC50 for HCO3^-
RECORDED_ENDPOINT: EC50 (mM)
Kindly answer with a numeric value in mM, unit omitted.

Q) Query the reported EC50 for human sACfl (Homo sapiens); item: `O=C(O)O`
A) 14

----------
Biological target: human sACt (Homo sapiens)
Construct: sACt contains only the C1 and C2 catalytic domains; GST; made in house
Sequence (Q96PN6 1-469 limits assumed): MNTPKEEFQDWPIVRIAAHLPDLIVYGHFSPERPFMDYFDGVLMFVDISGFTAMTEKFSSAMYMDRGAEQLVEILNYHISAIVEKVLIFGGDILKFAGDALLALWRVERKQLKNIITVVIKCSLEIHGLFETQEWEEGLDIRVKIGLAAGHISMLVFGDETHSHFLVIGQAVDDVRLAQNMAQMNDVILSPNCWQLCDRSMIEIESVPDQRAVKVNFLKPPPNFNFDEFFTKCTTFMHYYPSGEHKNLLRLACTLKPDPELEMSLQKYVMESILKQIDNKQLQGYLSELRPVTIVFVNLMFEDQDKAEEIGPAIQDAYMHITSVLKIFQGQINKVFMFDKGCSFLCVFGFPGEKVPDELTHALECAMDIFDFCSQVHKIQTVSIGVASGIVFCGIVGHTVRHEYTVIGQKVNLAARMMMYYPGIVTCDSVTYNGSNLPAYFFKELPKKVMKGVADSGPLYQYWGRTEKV
Test: In vitro adenylyl cyclase activity assay (two-column method), heterologously expressed human sACt (GST)
Type: biochemical
Settings: 2 mM ATP, 10 mM MgCl2, 40 mM NaHCO3; read-out: EC50 for Ca^2+
RECORDED_ENDPOINT: pEC50
Quick note: pEC50 values are minus log10 of concentrations in mol/L.

Q) Tell me the measured pEC50 of `[Ca+2].[Cl-].[Cl-]` , please.
A) 2.77

----------
biological target: mouse sAC isoforms (sACfl and sACt) (Mus musculus); experiment: In vitro adenylyl cyclase activity assay, one result stated for both mouse sAC isoforms; details: read-out: IC50, mouse sAC; text summary (Fig. 5)
Sequence (Q8C0T9 1-469 limits assumed): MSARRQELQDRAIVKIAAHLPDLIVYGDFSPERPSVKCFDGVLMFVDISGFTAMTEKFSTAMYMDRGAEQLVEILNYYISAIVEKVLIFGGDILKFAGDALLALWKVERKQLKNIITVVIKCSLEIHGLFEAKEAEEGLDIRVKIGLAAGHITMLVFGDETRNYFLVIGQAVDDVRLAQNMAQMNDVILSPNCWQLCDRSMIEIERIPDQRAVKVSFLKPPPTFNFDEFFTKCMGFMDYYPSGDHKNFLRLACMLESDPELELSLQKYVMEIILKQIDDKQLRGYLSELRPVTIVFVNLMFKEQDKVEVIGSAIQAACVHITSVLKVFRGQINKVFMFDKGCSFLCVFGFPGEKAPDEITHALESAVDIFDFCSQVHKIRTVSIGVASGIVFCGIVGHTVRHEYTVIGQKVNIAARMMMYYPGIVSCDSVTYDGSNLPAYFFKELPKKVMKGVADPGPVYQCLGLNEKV
pIC50: −log10 of the molar value.
RECORDED_ENDPOINT: pIC50

Q) Could you tell me which pIC50 is on file for `Nc1nc(Cl)cc(-c2nn(C(F)F)cc2Cc2ccccc2OCCN2CCOC[C@H]2CO)n1` ?
A) ~7.68

----------
tested on: mouse and human sACfl and sACt; assay: In vitro adenylyl cyclase activity assay, one result stated for all four sAC proteins; format: biochemical; conditions: 10 mM test substance; 2 mM ATP, 10 mM MgCl2, 10 mM CaCl2, 40 mM NaHCO3
RECORDED_ENDPOINT: inhibition of cyclase activity at 10 mM

O=P(O)(O)OP(=O)(O)O [Pyrophosphate]    > 90%
O=c1[nH]cnc2c1ncn2[C@@H]1O[C@H](COP(=O)(O)OP(=O)(O)OP(=O)(O)O)[C@@H](O)[C@H]1O    ∼50% inhibition at 10 mM
Nc1nc2c(ncn2[C@@H]2O[C@H](COP(=O)(O)OP(=O)(O)O)[C@@H](O)[C@H]2O)c(=O)[nH]1    ∼75% inhibition at 10 mM
Nc1ncnc2c1ncn2[C@@H]1O[C@H](COP(=O)(O)OP(=O)(O)O)[C@@H](O)[C@H]1O    ∼75% inhibition at 10 mM

Q) Can you look up the measured inhibition of cyclase activity at 10 mM of `Nc1ccn([C@@H]2O[C@H](COP(=O)(O)OP(=O)(O)OP(=O)(O)O)[C@@H](O)[C@H]2O)c(=O)n1` for me?
A) >50% inhibition at 10 mM

Q) Then this compound: `Nc1nc2c(ncn2[C@@H]2O[C@H](COP(=O)(O)OP(=O)(O)OP(=O)(O)O)[C@@H](O)[C@H]2O)c(=O)[nH]1`
A) ∼50% inhibition at 10 mM

Q) Queued: `Nc1ncnc2c1ncn2[C@@H]1O[C@H](CO)[C@@H](O)[C@H]1O`
A) >50% inhibition at 10 mM

----------
target: mouse sACt (Mus musculus, UniProt Q8C0T9)
Sequence (Q8C0T9 1-471 isoform Q8C0T9-2): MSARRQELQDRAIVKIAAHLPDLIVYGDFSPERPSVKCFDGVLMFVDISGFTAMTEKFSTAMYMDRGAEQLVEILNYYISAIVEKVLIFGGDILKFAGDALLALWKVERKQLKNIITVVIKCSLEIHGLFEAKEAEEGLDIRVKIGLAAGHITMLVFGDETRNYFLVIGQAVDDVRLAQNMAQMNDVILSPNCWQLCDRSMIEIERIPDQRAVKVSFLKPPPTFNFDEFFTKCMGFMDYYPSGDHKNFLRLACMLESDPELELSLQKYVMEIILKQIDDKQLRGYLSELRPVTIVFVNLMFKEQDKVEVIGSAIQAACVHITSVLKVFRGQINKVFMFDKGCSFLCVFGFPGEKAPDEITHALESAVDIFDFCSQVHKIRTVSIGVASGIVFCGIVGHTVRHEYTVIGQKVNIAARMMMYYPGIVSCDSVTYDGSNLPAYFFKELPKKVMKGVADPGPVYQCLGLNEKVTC
RECORDED_ENDPOINT: IC50 (nM)
Use nM as the unit, but write only the number.

Q) Any idea what IC50 was measured for `Nc1nc(Cl)cc(-c2nn(C(F)F)cc2Cc2ccccc2OCCN2CCOC[C@H]2CO)n1` ?
A) 21.1
